Target: rat CB2 (Rattus norvegicus)
Test: PI hydrolysis (IP1) assay in HEK/Gqi9 cells expressing rat CB2
Assay type: cell-based
Parameters: expressed in transfected cells
Conditions: rCB2/Gqi9 cells, presence of EC20 2-AG; read-out: PI hydrolysis potency, presence of 2-AG
MEASURED_QUANTITY: EC50
For clarity, give the value followed by its unit.

Prompt line: I have this compound here, COc1c(C)c2c(c(O)c1C/C=C(\C)CCC(=O)OCCN1CCOCC1)C(=O)OC2 [Mycophenolate mofetil] , and I need its recorded EC50.
Response line: 700 nM

====

Target: rCB2 (Rattus norvegicus)
Construct: expressed in transfected cells; host or cells: HEK293 cells stably co-expressing GIRK1/2 channels
Sequence (Q9QZN9 1-360): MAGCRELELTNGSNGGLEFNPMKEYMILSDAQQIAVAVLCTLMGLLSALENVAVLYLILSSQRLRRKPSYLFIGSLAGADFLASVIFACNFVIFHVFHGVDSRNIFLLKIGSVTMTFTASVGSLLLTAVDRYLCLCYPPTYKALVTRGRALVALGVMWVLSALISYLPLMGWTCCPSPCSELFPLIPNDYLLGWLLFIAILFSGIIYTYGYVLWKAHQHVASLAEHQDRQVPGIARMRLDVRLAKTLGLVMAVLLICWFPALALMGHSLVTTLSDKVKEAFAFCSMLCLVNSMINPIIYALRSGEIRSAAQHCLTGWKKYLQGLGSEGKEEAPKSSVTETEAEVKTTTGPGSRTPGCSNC
Assay: Thallium flux assay in HEK/GIRK cells expressing rCB2
Assay type: cell-based
Conditions: rCB2 GIRK EC50 in absence of 2-AG, thallium flux, absence of 2-AG
MEASURED_QUANTITY: pEC50
One number for each entry, as −log10 of the molar value.

Prompt line: Request: pEC50, test system rCB2 (Rattus norvegicus), entry O=C(NCC1CCOCC1)c1cnc(Nc2ccc(Cl)cc2Cl)nc1C(F)(F)F [GW-842,166X]
Response line: 7.25

====

Molecular target: Human CB2 (Homo sapiens, UniProt P34972)
Sequence (P34972 whole entry): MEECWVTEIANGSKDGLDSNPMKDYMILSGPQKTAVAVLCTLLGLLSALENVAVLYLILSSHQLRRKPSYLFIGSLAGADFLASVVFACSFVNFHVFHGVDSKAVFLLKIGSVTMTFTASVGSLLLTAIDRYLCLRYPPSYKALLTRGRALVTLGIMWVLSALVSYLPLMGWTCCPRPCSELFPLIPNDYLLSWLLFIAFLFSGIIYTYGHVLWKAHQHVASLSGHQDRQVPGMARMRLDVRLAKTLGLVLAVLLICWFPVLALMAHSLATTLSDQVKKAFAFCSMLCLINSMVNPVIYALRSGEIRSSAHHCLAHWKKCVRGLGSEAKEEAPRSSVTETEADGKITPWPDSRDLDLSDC
Assay: cAMP inhibition assay (HitHunter cAMP XS+, Eurofins) in human CB2 cells
Assay type: cell-based
Details: hCB2 cAMP (−) CP55,940 pEC50, absence of CP55,940, EC80 forskolin
Description: Assays were performed by Eurofins Discovery (Freemont, CA, USA). cAMP Hunter cell lines were expanded from freezer stocks according to standard procedures. Human CB2 cells were seeded in a total volume of 20 μL into white-walled, 384-well microplates and incubated at 37 °C for the appropriate time prior to testing. cAMP modulation was determined using the DiscoverX HitHunter cAMP XS+ assay. […] Compound activity was analyzed using the CBIS data analysis suite (ChemInnovation, San Diego, CA, USA). […]
MEASURED_QUANTITY: EC50 (nM)
One number for each entry, in nM.

Prompt line: Consider the molecule shown here: O=C(NCC1CCOCC1)c1cnc(Nc2ccc(Cl)cc2Cl)nc1C(F)(F)F [GW-842,166X] What is its recorded EC50?
Response line: 2040

====

Target: UniProt Q9QZN9
Test: [3H]CP55,940 radioligand competition binding, membranes of HEK/GIRK cells expressing rat CB2
Design: expressed in transfected cells; host or cells: HEK293 cells stably co-expressing GIRK1/2 channels
MEASURED_QUANTITY: EC50

Prompt line: What does the record list as EC50 for O=C(NCC1CCOCC1)c1cnc(Nc2ccc(Cl)cc2Cl)nc1C(F)(F)F [GW-842,166X] ?
Response line: > 10 µM

====

Molecular target: UniProt:P34972
Assay: cAMP inhibition assay (HitHunter cAMP XS+, Eurofins) in human CB2 cells
Format: cell-based
Conditions: hCB2 cAMP (+) CP55,940 pEC50, presence of EC20 CP55,940, EC80 forskolin
MEASURED_QUANTITY: EC50 (µM)
Give bare numbers, in µM.

Prompt line: What value of EC50 on UniProt:P34972 does O=C(NCC1CCOCC1)c1cnc(Nc2ccc(Cl)cc2Cl)nc1C(F)(F)F [GW-842,166X] have?
Response line: 5.13

====

Biological target: rCB1 (Rattus norvegicus, UniProt P20272)
Construct: expressed in transfected cells; host or cells: HEK293 cells stably co-expressing GIRK channels
Sequence (P20272 whole entry): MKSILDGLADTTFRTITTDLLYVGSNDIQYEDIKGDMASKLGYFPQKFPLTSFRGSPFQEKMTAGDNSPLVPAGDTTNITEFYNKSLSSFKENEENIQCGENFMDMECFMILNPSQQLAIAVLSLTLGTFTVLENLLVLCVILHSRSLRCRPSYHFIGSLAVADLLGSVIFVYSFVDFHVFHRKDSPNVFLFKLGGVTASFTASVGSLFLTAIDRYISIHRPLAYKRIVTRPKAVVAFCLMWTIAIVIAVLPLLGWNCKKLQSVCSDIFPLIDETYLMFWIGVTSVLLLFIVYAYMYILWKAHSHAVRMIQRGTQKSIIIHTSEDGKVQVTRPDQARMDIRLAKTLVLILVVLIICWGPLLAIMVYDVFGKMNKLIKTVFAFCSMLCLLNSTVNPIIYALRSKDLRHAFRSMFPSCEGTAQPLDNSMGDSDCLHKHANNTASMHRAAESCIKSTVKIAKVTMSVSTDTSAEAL
Experiment: Thallium flux assay in HEK/GIRK cells expressing rCB1
Assay type: cell-based
Settings: rCB1 GIRK EC50 in presence of 2-AG, presence of EC20 2-AG
MEASURED_QUANTITY: pEC50
Give bare numbers, as −log10 of the molar value.

Prompt line: May I ask what pEC50 has been recorded for CC1(Cc2ccccc2)COc2cc(C(=O)N3CCCCC3)ccc21 (stereo not shown) ?
Response line: 6.40

====

Target: rat CB2 (Rattus norvegicus, UniProt Q9QZN9)
Assay: β-arrestin recruitment assay (PathHunter, Eurofins) in rat CB2 cells
Type: cell-based
Parameters: expressed in transfected cells
Details: rCB2 β-Arrestin (+) CP55,940 pEC50, presence of EC20 CP55,940
MEASURED_QUANTITY: EC50 (nM)
Answers are plain numbers, in nM.

Prompt line: # lookup: EC50 of O=C(NCC1CCOCC1)c1cnc(Nc2ccc(Cl)cc2Cl)nc1C(F)(F)F [GW-842,166X]
Response line: 631

====

Molecular target: rCB2 (Rattus norvegicus, UniProt Q9QZN9)
Construct: expressed in transfected cells; host or cells: HEK293 cells stably co-expressing GIRK1/2 channels
Sequence (Q9QZN9 1-360): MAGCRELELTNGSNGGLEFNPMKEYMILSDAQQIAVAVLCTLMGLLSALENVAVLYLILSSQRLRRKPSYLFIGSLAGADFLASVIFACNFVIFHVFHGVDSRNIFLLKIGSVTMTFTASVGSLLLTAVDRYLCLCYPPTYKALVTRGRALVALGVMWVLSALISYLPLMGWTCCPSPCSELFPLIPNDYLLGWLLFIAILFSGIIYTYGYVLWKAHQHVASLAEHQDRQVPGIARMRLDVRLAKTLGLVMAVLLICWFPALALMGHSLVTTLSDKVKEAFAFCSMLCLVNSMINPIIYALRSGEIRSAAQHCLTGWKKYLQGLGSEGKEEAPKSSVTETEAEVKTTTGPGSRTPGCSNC
Test: Thallium flux assay in HEK/GIRK cells expressing rCB2
Format: cell-based
Settings: thallium flux, absence of 2-AG; read-out: rCB2 GIRK EC50 in absence of 2-AG
MEASURED_QUANTITY: EC50

Prompt line: // returns reported EC50 for input COc1c(C)c2c(c(O)c1C/C=C(\C)CCC(=O)OCCN1CCOCC1)C(=O)OC2 [Mycophenolate mofetil]
Response line: 154 nM
